- MEASUREMENT TARGET: CDK12–cyclin K and DDB1 (Homo sapiens, UniProt Q16531+Q9NYV4, K965R)
- Construct: His6–CDK12 (a.a. 713–1,052); full-length or beta-propeller B domain deletion (ΔBPB: a.a. 396–705 deleted) constructs of His6–DDB1ΔBPB, StrepII–Avi–DDB1, or His6–Spy–DDB1; made in house; host or cells: Trichoplusia ni High Five insect cells (baculovirus)
- Sequence (Q9NYV4 713-1052 K965R): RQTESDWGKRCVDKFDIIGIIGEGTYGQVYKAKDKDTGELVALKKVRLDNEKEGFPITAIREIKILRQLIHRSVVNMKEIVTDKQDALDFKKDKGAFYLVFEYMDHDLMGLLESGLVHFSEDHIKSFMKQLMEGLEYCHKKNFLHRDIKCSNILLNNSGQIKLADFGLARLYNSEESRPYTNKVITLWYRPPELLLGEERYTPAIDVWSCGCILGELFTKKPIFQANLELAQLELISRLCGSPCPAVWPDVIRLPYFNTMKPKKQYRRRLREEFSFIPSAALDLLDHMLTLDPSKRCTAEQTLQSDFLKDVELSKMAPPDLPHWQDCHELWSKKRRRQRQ
- Sequence (O75909 1-267 partner): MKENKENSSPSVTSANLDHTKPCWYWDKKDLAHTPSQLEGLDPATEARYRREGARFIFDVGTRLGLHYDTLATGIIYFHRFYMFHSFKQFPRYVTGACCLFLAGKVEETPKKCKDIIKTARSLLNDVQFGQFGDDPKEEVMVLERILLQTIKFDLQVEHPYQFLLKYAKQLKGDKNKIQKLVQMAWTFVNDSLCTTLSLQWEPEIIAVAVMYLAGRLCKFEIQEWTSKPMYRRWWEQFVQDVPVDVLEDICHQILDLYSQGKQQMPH
- Sequence (Q16531 whole entry): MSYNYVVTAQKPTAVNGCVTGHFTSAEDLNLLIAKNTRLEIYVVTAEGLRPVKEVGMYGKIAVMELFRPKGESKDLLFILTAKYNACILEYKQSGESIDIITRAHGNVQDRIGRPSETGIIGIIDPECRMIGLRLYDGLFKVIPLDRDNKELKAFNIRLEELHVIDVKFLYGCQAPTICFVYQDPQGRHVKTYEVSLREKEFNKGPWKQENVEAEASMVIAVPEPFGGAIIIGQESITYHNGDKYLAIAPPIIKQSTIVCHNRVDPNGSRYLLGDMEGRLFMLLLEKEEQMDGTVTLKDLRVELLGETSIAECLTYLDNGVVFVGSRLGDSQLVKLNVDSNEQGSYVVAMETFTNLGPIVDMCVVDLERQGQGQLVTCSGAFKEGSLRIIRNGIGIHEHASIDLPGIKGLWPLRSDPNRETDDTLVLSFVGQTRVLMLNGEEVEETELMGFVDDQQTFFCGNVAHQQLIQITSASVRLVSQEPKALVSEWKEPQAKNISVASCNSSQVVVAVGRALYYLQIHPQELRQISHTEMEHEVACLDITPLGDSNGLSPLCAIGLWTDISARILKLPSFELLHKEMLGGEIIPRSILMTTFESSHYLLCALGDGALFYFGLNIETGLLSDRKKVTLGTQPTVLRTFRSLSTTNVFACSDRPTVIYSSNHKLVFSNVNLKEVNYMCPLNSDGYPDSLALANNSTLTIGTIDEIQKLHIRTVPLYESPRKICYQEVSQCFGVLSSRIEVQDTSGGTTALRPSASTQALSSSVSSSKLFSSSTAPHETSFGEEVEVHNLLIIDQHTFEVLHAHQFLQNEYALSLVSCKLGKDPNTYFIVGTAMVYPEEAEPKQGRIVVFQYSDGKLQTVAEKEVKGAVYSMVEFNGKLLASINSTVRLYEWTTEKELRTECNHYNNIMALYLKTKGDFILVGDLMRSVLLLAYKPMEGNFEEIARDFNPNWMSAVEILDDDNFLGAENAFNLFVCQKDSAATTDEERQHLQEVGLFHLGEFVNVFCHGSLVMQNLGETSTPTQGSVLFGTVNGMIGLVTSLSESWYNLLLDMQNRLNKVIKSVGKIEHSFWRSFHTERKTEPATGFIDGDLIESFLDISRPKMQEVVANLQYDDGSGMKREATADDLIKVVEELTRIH
- ASSAY REMARKS: TR-FRET Kd determination, quadratic fit, 50 nM or 10 nM CDK12–cyclin K
- Format: binding
- CONDITIONS: 50 nM CDK12-cyclin K; compound 3.6 nM
PROPERTY NAME: TR-FRET signal

CCC(CO)Nc1nc(NCc2ccc(-c3ccccn3)cc2)c2ncn(C(C)C)c2n1 (stereo not shown) [CR8, reference compound] :: 0.3253
CC[C@H](CO)Nc1nc(NCc2nc3cc(Cl)c(Cl)cc3[nH]2)c2ncn(C(C)C)c2n1 :: 0.4714
Cc1cc2nc(CNc3nc(N4CCN(C)CC4)nc4c(Br)cnn34)[nH]c2cc1C [DS73, reference compound] :: 0.4237
CCC(CO)Nc1nc(NCc2ccc(-c3ccccc3)cc2)c2ncn(C(C)C)c2n1 (stereo not shown) :: 0.3938

----------
- MEASUREMENT TARGET: CDK12–cyclin K and DDB1 (Homo sapiens, UniProt Q16531+Q9NYV4, K965R)
- Construct: His6–CDK12 (a.a. 713–1,052); full-length or beta-propeller B domain deletion (ΔBPB: a.a. 396–705 deleted) constructs of His6–DDB1ΔBPB, StrepII–Avi–DDB1, or His6–Spy–DDB1; made in house; host or cells: Trichoplusia ni High Five insect cells (baculovirus)
- ASSAY REMARKS: TR-FRET ternary complex formation assay (compound titration)
- Assay type: binding
- CONDITIONS: sheet MOESM7; read-out: log TR-FRET EC50 (converted)
PROPERTY NAME: EC50 (nM)

Worked set:
CC[C@H](CO)Nc1nc(NCCCc2ccco2)c2ncn(C(C)C)c2n1 [DS34] :: 603
CC[C@H](CO)Nc1nc(NCc2ccc(-c3ccccn3)c(=O)[nH]2)c2ncn(C(C)C)c2n1 [WX3] :: 21.4
O=C(CCn1cnc2ccccc2c1=O)Nc1ccc(Br)cn1 [Z7] :: 303
CC[C@H](CO)Nc1nc(NCCCC2CCCCC2)c2ncn(C(C)C)c2n1 [DS32] :: 676
CC[C@H](CO)Nc1nc(NCCOCc2ccccc2)c2ncn(C(C)C)c2n1 [DS40] :: 1300

a. Cn1cc(-n2cnc3c(NCc4ccc(-c5ccccn5)cc4)nc(N4CCOCC4)nc32)cn1 [DS21]
b. CC[C@H](CO)Nc1nc(NCc2ccc3ccccc3c2)c2ncn(C(C)C)c2n1 [DS08]
c. CC[C@H](CO)Nc1nc(NCCCc2cccc(C)c2)c2ncn(C(C)C)c2n1 [DS30]
d. CC(C)n1cnc2c(NCc3ccc(-c4ccccn4)cc3)nc(N[C@@H](Cc3ccc(OCc4ccccc4)cc3)c3nnc[nH]3)nc21 [DS58]
Query string: Order the items by recorded EC50; the first position goes to the largest value. Provide the labels, sequenced as the question asks.
Result string: d, a, b, c

A. Cc1cccc(Nc2nc(CC(=O)Nc3ncc(C)s3)cs2)n1 [HQ461]
B. CC[C@H](CO)Nc1nc(NCCCc2ccnn2C)c2ncn(C(C)C)c2n1 [DS35]
Query string: Hi there! Just curious which has the higher EC50 between A and B . # respond with the chosen item's label
Result string: B
(B: 246 nM, A: 42.7 nM)

----------
- MEASUREMENT TARGET: CDK12–cyclin K and DDB1 (Homo sapiens, UniProt Q16531+Q9NYV4, K965R)
- Construct: His6–CDK12 (a.a. 713–1,052); full-length or beta-propeller B domain deletion (ΔBPB: a.a. 396–705 deleted) constructs of His6–DDB1ΔBPB, StrepII–Avi–DDB1, or His6–Spy–DDB1; made in house; host or cells: Trichoplusia ni High Five insect cells (baculovirus)
- ASSAY REMARKS: TR-FRET Kd determination, quadratic fit, 50 nM or 10 nM CDK12–cyclin K
- Assay type: binding
- CONDITIONS: 50 nM CDK12-cyclin K; compound 2.16 nM
PROPERTY NAME: TR-FRET signal

Here is how some compounds turned out for TR-FRET signal.
CCC(CO)Nc1nc(NCc2ccc(-c3ccccn3)cc2)c2ncn(C(C)C)c2n1 (stereo not shown) [CR8, reference compound] :: 0.2548
CC[C@H](CO)Nc1nc(NCc2nc3cc(Cl)c(Cl)cc3[nH]2)c2ncn(C(C)C)c2n1 :: 0.3077

P. Cc1cc2nc(CNc3nc(N4CCN(C)CC4)nc4c(Br)cnn34)[nH]c2cc1C [DS73, reference compound]
Q. CCC(CO)Nc1nc(NCc2ccc(-c3ccccc3)cc2)c2ncn(C(C)C)c2n1 (stereo not shown)
Query string: Which record would sort first by descending TR-FRET signal, P or Q ? Let me know the label of the one you choose.
Result string: P

----------
- MEASUREMENT TARGET: CDK12–cyclin K and DDB1 (Homo sapiens, UniProt Q16531+Q9NYV4, K965R)
- Construct: His6–CDK12 (a.a. 713–1,052); full-length or beta-propeller B domain deletion (ΔBPB: a.a. 396–705 deleted) constructs of His6–DDB1ΔBPB, StrepII–Avi–DDB1, or His6–Spy–DDB1; made in house; host or cells: Trichoplusia ni High Five insect cells (baculovirus)
- ASSAY REMARKS: TR-FRET ternary complex formation assay (compound titration)
- Format: binding
- CONDITIONS: sheet MOESM7; read-out: log TR-FRET EC50 (converted)
PROPERTY NAME: EC50 (µM)

COc1ccccc1CCNC(=O)CNc1nc(NCc2ccc(-c3ccccn3)cc2)c2ncn(C(C)C)c2n1 :: 1.92
CCC(CO)Nc1nc(NCc2ccc(-c3ccccc3)cc2)c2ncn(C(C)C)c2n1 (centres unmarked) :: 0.0167
CC[C@H](CO)Nc1nc(NCCCc2cccc(C)n2)c2ncn(C(C)C)c2n1 :: 0.0359

1. CC[C@H](CO)Nc1nc(NCCCCCc2cccc3ccccc23)c2ncn(C(C)C)c2n1
2. CC[C@H](CO)Nc1nc(NCCCC2CCCC2)c2ncn(C(C)C)c2n1
Query string: Lab note: check whether 1 or 2 has the lower measured EC50. Label of pick, please.
Result string: 1
(1: 0.182 µM, 2: 1.27 µM)

----------
- MEASUREMENT TARGET: CDK12–cyclin K and DDB1 (Homo sapiens, UniProt Q16531+Q9NYV4, K965R)
- Construct: His6–CDK12 (a.a. 713–1,052); full-length or beta-propeller B domain deletion (ΔBPB: a.a. 396–705 deleted) constructs of His6–DDB1ΔBPB, StrepII–Avi–DDB1, or His6–Spy–DDB1; made in house; host or cells: Trichoplusia ni High Five insect cells (baculovirus)
- ASSAY REMARKS: TR-FRET ternary complex formation assay (compound titration)
- Type: binding
- CONDITIONS: in vitro complex formation, 50 nM CDK12–cyclin K, 100 nM DDB1; text and figures; read-out: TR-FRET EC50
pEC50: −log10 of the molar value.
PROPERTY NAME: pEC50

CC(C)n1cnc2c(NCc3ccc(-c4ccccn4)cc3)nc(NCc3c(Cl)cncc3Cl)nc21 :: 7.34
CC(C)n1cnc2c(NCc3ccc(-c4ccccn4)cc3)nc(N3CCOCC3)nc21 :: 7.85
CC[C@H](CO)Nc1nc(NCc2nc3cc(Cl)c(Cl)cc3[nH]2)c2ncn(C(C)C)c2n1 :: 7.89

I. CC[C@H](CO)Nc1nc(NCc2ccc(-c3ccc4ccccc4c3)cc2)c2ncn(C(C)C)c2n1
II. CC[C@H](CO)Nc1nc(NCc2ccc(-c3ccccn3)c(=O)[nH]2)c2ncn(C(C)C)c2n1
III. CC[C@H](CO)Nc1nc(NCc2nc3c(F)c(F)ccc3[nH]2)c2ncn(C(C)C)c2n1
IV. CCCCc1ccc(CNc2nc(N[C@H](CC)CO)nc3c2ncn3C(C)C)cc1
V. Cn1cc(-n2cnc3c(NCc4ccc(OCCO)cc4)nc(N4CCOCC4)nc32)cn1
Query string: Ascending by pEC50, please. Please express your ranking as an ordered list of the labels.
Result string: V, I, IV, III, II

----------
- MEASUREMENT TARGET: CDK12–cyclin K and DDB1 (Homo sapiens, UniProt Q16531+Q9NYV4, K965R)
- Construct: His6–CDK12 (a.a. 713–1,052); full-length or beta-propeller B domain deletion (ΔBPB: a.a. 396–705 deleted) constructs of His6–DDB1ΔBPB, StrepII–Avi–DDB1, or His6–Spy–DDB1; made in house; host or cells: Trichoplusia ni High Five insect cells (baculovirus)
- ASSAY REMARKS: TR-FRET Kd determination, quadratic fit, 50 nM or 10 nM CDK12–cyclin K
- Type: binding
- CONDITIONS: 10 nM CDK12-cyclin K; compound 2001.6 nM
PROPERTY NAME: TR-FRET signal

Cc1cc2nc(CNc3nc(N4CCN(C)CC4)nc4c(Br)cnn34)[nH]c2cc1C [DS73, reference compound] :: 0.5235
CCC(CO)Nc1nc(NCc2ccc(-c3ccccn3)cc2)c2ncn(C(C)C)c2n1 (stereo not shown) [CR8, reference compound] :: 0.5508
CCC(CO)Nc1nc(NCc2ccc(-c3ccccc3)cc2)c2ncn(C(C)C)c2n1 (stereo not shown) :: 0.4769
CC[C@H](CO)Nc1nc(NCc2nc3cc(Cl)c(Cl)cc3[nH]2)c2ncn(C(C)C)c2n1 :: 0.5626
